Biological target: Vhr1 (UniProt P40522)
Sequence: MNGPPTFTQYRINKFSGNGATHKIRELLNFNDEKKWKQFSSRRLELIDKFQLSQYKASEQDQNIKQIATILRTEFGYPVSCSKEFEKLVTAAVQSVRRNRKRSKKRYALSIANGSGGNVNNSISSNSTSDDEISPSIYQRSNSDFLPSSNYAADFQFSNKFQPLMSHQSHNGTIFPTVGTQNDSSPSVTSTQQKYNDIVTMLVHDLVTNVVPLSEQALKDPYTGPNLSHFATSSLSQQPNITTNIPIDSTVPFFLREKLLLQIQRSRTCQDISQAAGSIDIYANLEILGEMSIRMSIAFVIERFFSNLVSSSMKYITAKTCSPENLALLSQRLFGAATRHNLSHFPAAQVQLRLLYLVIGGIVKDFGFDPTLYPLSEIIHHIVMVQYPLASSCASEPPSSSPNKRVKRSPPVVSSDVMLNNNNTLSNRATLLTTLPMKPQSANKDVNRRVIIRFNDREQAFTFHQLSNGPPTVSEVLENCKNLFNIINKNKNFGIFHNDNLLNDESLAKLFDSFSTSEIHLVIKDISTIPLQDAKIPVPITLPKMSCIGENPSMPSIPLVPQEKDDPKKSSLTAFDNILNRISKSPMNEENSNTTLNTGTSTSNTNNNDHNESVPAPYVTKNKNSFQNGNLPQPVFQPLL
Test: PBM E-score (8-mer binding enrichment) (E-score (-0.5 to 0.5)); higher = stronger / more preferred TF binding
Conditions: protein concentration: 200 nM; construct: GST-full length
Over roughly 33,000 sequences, “E-score (-0.5 to 0.5)” has its median near -0.012; the highest 2% begin near 0.27. Many of the other results were omitted from the sample, so the highest values are more common in it than they were.
Classify by measured PBM E-score: yes if it is equal to or exceeds 0.07, no if it is smaller.

SEQUENCE_TEXT	TEST_SYSTEM	QUALITATIVE_LABEL
ACCTCGAC	Vhr1 (UniProt P40522)	no
CTCAGACC	Vhr1 (UniProt P40522)	no
AAGCTTTA	Vhr1 (UniProt P40522)	no
AGCGACTC	Vhr1 (UniProt P40522)	yes
CACAGACA	Vhr1 (UniProt P40522)	no
CGCGACTA	Vhr1 (UniProt P40522)	yes
GGCGACTA	Vhr1 (UniProt P40522)	yes
TGGATCCA	Vhr1 (UniProt P40522)	no
AGCGACTG	Vhr1 (UniProt P40522)	yes
AATTGTTA	Vhr1 (UniProt P40522)	no
CTCGACTA	Vhr1 (UniProt P40522)	yes
CTTTAGAA	Vhr1 (UniProt P40522)	no
ACGTATCC	Vhr1 (UniProt P40522)	no
CGCGACCC	Vhr1 (UniProt P40522)	yes
CACAGACG	Vhr1 (UniProt P40522)	yes
ACACCCAT	Vhr1 (UniProt P40522)	yes
GACAGACC	Vhr1 (UniProt P40522)	no
AACAGACT	Vhr1 (UniProt P40522)	no
CGGATCCA	Vhr1 (UniProt P40522)	yes
GACAGACA	Vhr1 (UniProt P40522)	yes
CGCGACTC	Vhr1 (UniProt P40522)	yes

----------
Biological target: Vhr1 (UniProt P40522)
Sequence: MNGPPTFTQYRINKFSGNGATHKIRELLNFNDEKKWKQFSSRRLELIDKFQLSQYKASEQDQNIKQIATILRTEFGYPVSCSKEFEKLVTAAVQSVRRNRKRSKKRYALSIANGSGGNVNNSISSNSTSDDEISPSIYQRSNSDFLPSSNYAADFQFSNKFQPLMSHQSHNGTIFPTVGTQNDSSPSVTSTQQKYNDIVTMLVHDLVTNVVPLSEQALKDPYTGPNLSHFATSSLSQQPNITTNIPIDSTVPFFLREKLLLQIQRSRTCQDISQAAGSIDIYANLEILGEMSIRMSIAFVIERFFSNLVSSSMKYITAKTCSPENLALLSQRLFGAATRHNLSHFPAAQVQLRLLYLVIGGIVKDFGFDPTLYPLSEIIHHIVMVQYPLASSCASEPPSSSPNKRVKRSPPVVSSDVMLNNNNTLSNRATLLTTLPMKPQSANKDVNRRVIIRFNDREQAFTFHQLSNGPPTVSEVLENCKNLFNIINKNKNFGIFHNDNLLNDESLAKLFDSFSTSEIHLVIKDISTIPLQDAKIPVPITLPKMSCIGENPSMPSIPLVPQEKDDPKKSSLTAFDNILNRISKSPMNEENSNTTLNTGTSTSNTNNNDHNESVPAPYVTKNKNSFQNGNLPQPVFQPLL
Assay: PBM E-score (8-mer binding enrichment) (E-score (-0.5 to 0.5)); higher = stronger / more preferred TF binding
Conditions: protein concentration: 200 nM; construct: GST-full length
Over roughly 33,000 sequences, “E-score (-0.5 to 0.5)” has its median near -0.012; the highest 2% begin near 0.27. What follows is part of a selection rich in the highest values, with near analogues and random picks from the rest.

SEQUENCE_TEXT	TEST_SYSTEM	PBM E-score
CTAGTTGA	Vhr1 (UniProt P40522)	0.202
CCTCATCG	Vhr1 (UniProt P40522)	0.0284
ACTCATCC	Vhr1 (UniProt P40522)	0.412
ACTCATCT	Vhr1 (UniProt P40522)	0.199
GATTGGCA	Vhr1 (UniProt P40522)	-0.056
AGAATCAG	Vhr1 (UniProt P40522)	0.283
ACTCATCA	Vhr1 (UniProt P40522)	0.32
TCTCATCA	Vhr1 (UniProt P40522)	-0.131
CGAATCAG	Vhr1 (UniProt P40522)	0.344
GCTCATCC	Vhr1 (UniProt P40522)	0.0555
ACAATCAT	Vhr1 (UniProt P40522)	0.231
